Kindly state viability at 24 h, 6.3 µM for each of the entries shown.
Assay Method Text: Cytotoxicity against human SH-SY5Y cells assessed as cell viability at 6.3 uM measured after 24 hrs by MTT assay relative to control
Assay type: cell-based
Recorded Conditions: read-out: Activity
Dear colleague, please return just the value in %, with no unit written.

Query: Specify reported viability at 24 h, 6.3 µM for the molecule shown: COc1cc2c(cc1O)CCC(C)(CC(N)=O)O2 (stereo not drawn)
Reply: 100

Query: Specify reported viability at 24 h, 6.3 µM for the molecule shown: COc1cc2c(cc1O)CCC(C)(CC(=O)N[C@@H](Cc1ccccc1)C(=O)O)O2 (stereo partly drawn)
Reply: 87.5

Query: Specify reported viability at 24 h, 6.3 µM for the molecule shown: COc1cc2c(cc1O)CCC(C)(CC(=O)NCCc1ccc(O)c(O)c1)O2 (stereo not drawn)
Reply: 98.4

* * *

Assay Method Text: Cytotoxicity against human SH-SY5Y cells assessed as cell viability at 0.8 uM measured after 24 hrs by MTT assay relative to control
Assay type: cell-based
Recorded Conditions: read-out: Activity
Kindly state viability at 24 h, 0.8 µM for each of the entries shown.
Could you kindly put the unit after your number?

Query: Specify reported viability at 24 h, 0.8 µM for the compound shown: COc1cc2c(cc1O)CCC(C)(C)O2
Reply: 91.1%

Query: Specify reported viability at 24 h, 0.8 µM for the compound shown: COc1cc2c(cc1O)CCC(C)(CC(=O)O)O2 (centres undefined)
Reply: 90.2%

Query: Specify reported viability at 24 h, 0.8 µM for the compound shown: COc1cc2c(cc1O)CCC(C)(CCNC(=O)/C=C(C)/C=C/C=C(C)/C=C/C1=C(C)CCCC1(C)C)O2 (centres undefined)
Reply: 89.6%

Query: Specify reported viability at 24 h, 0.8 µM for the compound shown: COc1cc2c(cc1O)CCC(C)(CCNC(C)=O)O2 (centres undefined)
Reply: 89%

* * *

Assay Method Text: Cytotoxicity against human SH-SY5Y cells assessed as cell viability at 0.8 uM measured after 24 hrs by MTT assay relative to control
Assay type: cell-based
Recorded Conditions: read-out: Activity
Measured Metric: viability at 24 h, 0.8 µM (%)
Dear colleague, please return just the value in %, with no unit written.

Query: Specify reported viability at 24 h, 0.8 µM for the compound shown: COc1cc2c(cc1O)CCC(C)(CC(N)C(=O)O)O2 (stereo not given)
Reply: 82.7

Query: Specify reported viability at 24 h, 0.8 µM for the compound shown: COc1cc2c(cc1O)CCC(C)(CC(N)=O)O2 (stereo not given)
Reply: 96.7

Query: Specify reported viability at 24 h, 0.8 µM for the compound shown: COc1cc2c(cc1O)CCC(C)(CC(=O)N[C@@H](Cc1c[nH]c3ccccc13)C(=O)O)O2 (stereo not given in full)
Reply: 94.6

Query: Specify reported viability at 24 h, 0.8 µM for the compound shown: Cc1c(C)c2c(c(C)c1O)CCC(C)(C(=O)O)O2 (stereo not given)
Reply: 84.6

Query: Specify reported viability at 24 h, 0.8 µM for the compound shown: COc1cc2c(cc1O)CCC(C)(CC(=O)N[C@@H](Cc1ccccc1)C(=O)O)O2 (stereo not given in full)
Reply: 100

* * *

Assay Method Text: Cytotoxicity against human SH-SY5Y cells assessed as cell viability at 0.8 uM measured after 2 hrs by MTT assay relative to control
Type: cell-based
Recorded Conditions: read-out: Activity
Measured Metric: viability at 2 h, 0.8 µM

Query: Specify reported viability at 2 h, 0.8 µM for the compound shown: COc1cc2c(cc1O)CCC(C)(CC(=O)N[C@H](C(=O)O)C(C)C)O2 (some centres undefined)
Reply: 93.3%

Query: Specify reported viability at 2 h, 0.8 µM for the compound shown: COc1cc2c(cc1O)CCC(C)(CCNC(C)=O)O2 (centres undefined)
Reply: 91.3%

Query: Specify reported viability at 2 h, 0.8 µM for the compound shown: COc1cc2c(cc1O)CCC(C)(CC(=O)N[C@@H](Cc1ccccc1)C(=O)O)O2 (some centres undefined)
Reply: 99%

Query: Specify reported viability at 2 h, 0.8 µM for the compound shown: COc1cc2c(cc1O)CCC(C)(CC(=O)N1CCC[C@H]1C(=O)O)O2 (some centres undefined)
Reply: 100%
